Catalogue of inhibition values
system name: Mitogen-activated protein kinase 14 (Homo sapiens);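 also: values are mean percent inhibition of p38α kinase from the GSK PKIS published kinase inhibitor set screen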
details: at 0.1 µM
Report the figure in % without appending any unit label.

>>> measured_result("COc1ccc(-c2nn3ncccc3c2-c2ccnc(Nc3ccc(Cl)c(C(F)(F)F)c3)n2)cc1")
4.58
>>> measured_result("NS(=O)(=O)c1ccc(N/N=C2\\C(=O)Nc3ccc(C(=O)NCCc4c[nH]cn4)cc32)cc1")
5.71
>>> measured_result("CS(=O)(=O)CCNCc1ccc(-c2ccc3ncnc(Nc4ccc(OCc5cccc(F)c5)c(C(F)(F)F)c4)c3c2)o1")
4.28
>>> measured_result("N#Cc1c(NC(=O)c2cccc3ccccc23)sc2c1CCCC2")
2.97
>>> measured_result("O=C1NC(=O)C(c2ccccc2Cl)=C1Nc1cccc(O)c1")
2.48

I am curious: what inhibition value has been reported for COc1cc2ncn(-c3cc(OCc4ccccc4Cl)c(C(N)=O)s3)c2cc1OC ?
2.7

Record request: inhibition value, item NC(=O)c1cccc(Nc2nccc(Nc3cccc4[nH]ncc34)n2)c1
4.23

Requested field: inhibition. Item: CCn1c(-c2nonc2N)nc2cncc(C(=O)N3CCNCC3)c21
14.5

// lookup inhibition for CCn1c(-c2nonc2N)nc2c(N3CCCC3)nccc21
1.24

Looking for the measured inhibition of COc1cc(C=NNc2ncnc3c2cnn3-c2ccccc2)ccc1O , can you help?
4.51
